meta.source: ChEMBL document CHEMBL6109153

Test system: Staphylococcus aureus
PROCEDURE_SUMMARY: Antibacterial activity against Staphylococcus aureus ATCC 29213 incubated for 16 to 20 hrs by broth microdilution method
Assay type: functional
PROTOCOL_CONDITIONS: time 16-20 hrs
MEASURED_QUANTITY: MIC (µg/mL)

1) CCCCCNC(=O)C[n+]1ccc(SCCCOc2ccc3ccc(=O)oc3c2CC=C(C)C)cc1.[Br-] 2
2) CC(C)=CCc1c(OCCCCSc2cc[n+](CC(=O)N(C(C)C)C(C)C)cc2)ccc2ccc(=O)oc12.[Br-] 2
3) CC(C)=CCc1c(OCCCCCSc2cc[n+](CC(=O)N(C(C)C)C(C)C)cc2)ccc2ccc(=O)oc12.[Br-] 2

----------
Tested on: Staphylococcus aureus
PROCEDURE_SUMMARY: Antibacterial activity against methicillin-resistant Staphylococcus aureus M14 incubated for 16 to 20 hrs by broth microdilution method
Format: functional
PROTOCOL_CONDITIONS: time 16-20 hrs
MIC strictly under 2 mg/L means Satisfied; at 2 mg/L or over means Not satisfied.

1. CCCCN(CCCC)C(=O)C[n+]1ccc(SCCCCOc2ccc3ccc(=O)oc3c2CC=C(C)C)cc1.[Br-] Satisfied
2. CCCNC(=O)C[n+]1ccc(SCCCOc2ccc3ccc(=O)oc3c2CC=C(C)C)cc1.[Br-] Not satisfied
3. CC(C)=CCc1c(OCCCCSc2cc[n+](CC(=O)N(CC(C)C)CC(C)C)cc2)ccc2ccc(=O)oc12.[Br-] Satisfied
4. CC(C)=CCc1c(OCCCSc2cc[n+](CC(=O)N3CCOCC3)cc2)ccc2ccc(=O)oc12.[Br-] Not satisfied
